B1: FANCE (parent)
chain: AQVLMLGQILELPWKEETFLVLQS

variants of: B1; experiment: protein stability index of a GFP-peptide fusion (GPS, HEK-293T) (PSI 1-6); higher = more stable; conditions: c terminus: a fixed tail appended;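 further: lentivirally expressed fusions sorted by FACS into six bins by GFP to DsRed ratio, PSI derived from sequencing read proportions per bin multiplied by bin number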
Consider the following variants; for each one, report its protein stability index.
Give bare numbers.

// solved cases for protein stability index follow
# variant.annotation, protein stability index
measured = [
    ("L20V", 3),
    ("K15W", 2.14),
    ("P13N", 3.19),
    ("F19N", 2.02),
    ("E17M", 2.08),
]

Return reported protein stability index values for all items listed beneath this line.
1. W14R
2. L4G
3. K15E
4. L20P
5. L22Q
6. E17D
7. L22A
8. L12C

A)
1: 4.06; 2: 2.25; 3: 2.32; 4: 1.94; 5: 2.08; 6: 3.79; 7: 2.06; 8: 3.49

Return reported protein stability index values for all items listed beneath this line.
1. T18S
2. Q2H

A)
1: 2.84; 2: 2.69
